Data provenance: patent US20240317712A1

target: QPCT (Homo sapiens, UniProt Q16769)
Sequence (Q16769 29-361): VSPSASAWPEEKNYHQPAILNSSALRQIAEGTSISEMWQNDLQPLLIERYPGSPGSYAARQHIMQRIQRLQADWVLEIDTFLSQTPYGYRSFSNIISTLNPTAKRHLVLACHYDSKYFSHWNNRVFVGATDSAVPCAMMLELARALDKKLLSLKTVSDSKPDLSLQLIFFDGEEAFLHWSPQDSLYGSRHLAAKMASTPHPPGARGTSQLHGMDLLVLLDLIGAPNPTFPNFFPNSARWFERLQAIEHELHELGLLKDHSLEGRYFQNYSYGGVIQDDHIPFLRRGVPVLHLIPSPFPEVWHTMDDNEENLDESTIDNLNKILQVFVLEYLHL
METRIC: IC50 (nM)

Reference set (2 entries):
In [3]: df
Out[3]:
                                   compound                          measured_on  assay_result
0  Cn1cnnc1C1CCN(c2ncccc2-c2cccnc2)CC1 [SEN180, reference compound]  QPCT (Homo sapiens, UniProt Q16769)           176
1  COc1ccc(-c2cnc3nn(C(C)(C)C)cc3c2)c(N2CCC(F)(c3nncn3C)CC2)c1C#N  QPCT (Homo sapiens, UniProt Q16769)             1

A. Cn1cnnc1C1CCN(c2c(C#N)ccc(OCc3ccccc3)c2-c2ccc(F)nc2)CC1
B. Cn1cnnc1C1CCN(c2c(C#N)cc(C(F)(F)F)cc2-c2ccc(F)nc2)CC1
Ask | Hi! Which is lower in terms of IC50, the first one A or the second one B ? Kindly state the label of the option you pick.
Reply | A

----------
system: SIRPα signalling induced by A549 cells; assay: Assay B: SIRPα signalling assay using A549 cells; type: cell-based; details: Homo sapiens, 48 h compound incubation, Jurkat PathHunter SIRPaV1 reporter cells, read-out: Inhibition of SIRPα signalling induced by A549 cells: IC50
METRIC: IC50 (nM)

                                smiles_code  output_unit  assay_result
0  Cn1cnnc1C1(F)CCN(c2c(-c3cnc4nn(C(C)(C)C)cc4c3)ccc(Cl)c2C#N)CC1           nM             7

I. Cn1cnnc1C1CCN(c2c(C#N)cc(Cl)cc2-c2cnc3nn(C(C)(C)C)cc3c2)CC1
II. Cn1cnnc1C1(F)CCN(c2c(-c3cnc4nn(C(C)(C)C)cc4c3)ccc(C(F)(F)F)c2C#N)CC1
III. Cn1cnnc1C1CCN(c2c(C#N)cc(C(F)(F)F)cc2-c2ccc(F)nc2)CC1
Ask | List items by IC50 in falling order. // format: requested-order list of labels
Reply | III, II, I
(III: 12 nM, II: 8 nM, I: 5 nM)

----------
assay: Assay C: Permeability in CACO-2 cells; format: in vitro ADME; conditions: human; Caco-2, apical to basolateral, pH 7.2
METRIC: Papp A→B (×10⁻⁶ cm/s)

Reference set (2 entries):
>>> df
                                smiles_code    metric  assay_result
0  Cn1cnnc1C1(F)CCN(c2c(C#N)cc(Cl)cc2-c2cnc3nn(C(C)(C)C)cc3c2)CC1  Papp A→B            18
1  Cn1cnnc1C1CCN(c2c(C#N)cc(F)cc2-c2ccc(F)nc2)CC1  Papp A→B            24

I. Cn1cnnc1C1(F)CCN(c2c(C#N)cc(C(F)(F)F)cc2-c2cnc3nn(C(C)(C)C)cc3c2)CC1
II. Cn1cnnc1C1(F)CCN(c2c(C#N)cc(C(F)(F)F)cc2-c2ccnnc2)CC1
Ask | Sort I and II by Papp A→B descending and give the first. Kindly state the label of the option you pick.
Reply | I

----------
test: Assay C: Permeability in CACO-2 cells; format: in vitro ADME; settings: human; Caco-2, apical to basolateral, pH 7.2
METRIC: Papp A→B (×10⁻⁶ cm/s)

>>> print(df.to_string())
                                smiles_code    metric  assay_result
0  Cn1cnnc1C1(F)CCN(c2c(C#N)cc(C(F)(F)F)cc2-c2cnc3nc(C(F)(F)F)cn3c2)CC1  Papp A→B           2.1
1  COc1ccc(C#N)c(N2CCC(c3nncn3C)CC2)c1-c1ccc(F)nc1  Papp A→B           8.5
2  Cn1cnnc1C1(F)CCN(c2c(-c3cnc4nn(C(C)(C)C)cc4c3)ccc(Cl)c2C#N)CC1  Papp A→B           2.2
3  COc1ccc(C#N)c(N2CCC(F)(c3nncn3C)CC2)c1-c1ccc(F)nc1  Papp A→B            28

1. Cn1cnnc1C1CCN(c2c(-c3ccc(F)nc3)ccc(C(F)(F)F)c2C#N)CC1
2. Cn1cnnc1C1(F)CCN(c2c(C#N)cc(F)cc2-c2ccc(F)nc2)CC1
3. Cn1cnnc1C1CCN(c2c(C#N)cc(Cl)cc2-c2cnc3nn(C(C)(C)C)cc3c2)CC1
4. Cn1cnnc1C1(F)CCN(c2c(C#N)cc(C(F)(F)F)cc2-c2cnc3nc(C(C)(C)C)nn3c2)CC1
Ask | I would appreciate it if you could sort these 4 molecules by Papp A→B, starting from the smallest number. // format: requested-order list of labels
Reply | 3, 4, 1, 2
